Recorded IC50 for the following compounds
- Tgt: UniProt:P43405
- Test protocol: Syk kinase inhibition test (HTRF method)
- Type: biochemical
- Condition label: Tables 1-x, compounds A; read-out: sykHTRF ave IC50
- Protocol: Syk Kinase Inhibition Test (HTRF Method) After the compounds were serially diluted with dimethylsulfoxide (DMSO), 10 μL of those 10-fold diluted with kinase buffer (20 mM HEPES pH 7.0, 10 mM MgCl2, 50 mM NaCl, 1 mM 2-ME, 0.05% BSA) was added to opti-plate HTRF-96 (Packard) (final DMSO concentration: 2%). […]

For COC(=O)N1CCN(c2ncc(-c3cccc(Nc4cc(C)ccn4)n3)s2)CC1 , what is its reported IC50?
< 100 nM

* * *

- Test system: cultured human mast cells
- Test protocol: Degranulation inhibition test using cultured human mast cells (IgE cross-linking, β-Hexosaminidase release)
- Format: cell-based
- Condition label: Mast cell; Tables 1-x, compounds A; cultured human mast cells; read-out: human degranulation ave. IC50
pIC50: −log10 of the molar value. Where a name gives a salt, the structure may show the parent alone.
Observable: pIC50

Cc1ccnc(Nc2cccc(-c3cnc(N4CCC(CC(=O)NCCO)CC4)s3)n2)c1 | 6.00 to 7.00
O[C@@H]1CCN(c2ncc(-c3cccc(Nc4cc(Cl)ccn4)n3)s2)C1 | > 7.00
COCCN(c1ncc(-c2cccc(Nc3cc(C)ccn3)n2)s1)C1CCN(C(C)=O)CC1 | 6.00 to 7.00

For Cc1ccnc(Nc2cccc(-c3cnc(N(C)C4CCC(C(=O)O)CC4)s3)n2)c1 (centres unmarked) , what is its reported pIC50?
6.00 to 7.00

For Cc1ccnc(Nc2cccc(-c3cnc(N(CC(N)=O)[C@H]4CC[C@@H](C(=O)O)CC4)s3)n2)c1 , what is its reported pIC50?
< 6.00

For Cc1ccnc(Nc2cccc(-c3cnc([C@@H]4CN(C)C(=O)O4)s3)n2)c1 , what is its reported pIC50?
6.00 to 7.00

For COc1ccnc(Nc2cccc(-c3cnc(N4CCC(C(N)=O)CC4)s3)n2)c1 , what is its reported pIC50?
6.00 to 7.00

For Cc1ccnc(Nc2cccc(-c3cnc(N(C)CC(=O)NCC(=O)O)s3)n2)c1 [Compound A-571, dihydrochloride] , what is its reported pIC50?
< 6.00

* * *

Recorded pIC50 for the following compounds
- Test system: cultured human mast cells
- Test protocol: Degranulation inhibition test using cultured human mast cells (IgE cross-linking, β-Hexosaminidase release)
- Assay type: cell-based
- Condition label: Mast cell; cultured human mast cells, anti-hIgE stimulation, β-Hexosaminidase index, average; read-out: human degranulation ave. IC50
pIC50: −log10 of the molar value.

Cc1ccnc(Nc2cccc(-c3cnc(C4CCN(C(=O)CO)CC4)s3)n2)c1 | 6.00 to 7.00
CC(=O)NC1CCN(C(=O)[C@H]2CC[C@H](c3ncc(-c4cccc(Nc5cc(C)ccn5)n4)s3)CC2)C1 (some centres unmarked) | 6.00 to 7.00
NC(=O)[C@H]1CC[C@H](c2ncc(-c3cccc(Nc4cc(Cl)ccn4)n3)s2)CC1 | > 7.00
COC(=O)CCCCc1ncc(-c2cccc(Nc3cc(C)ccn3)n2)s1 | < 6.00
Cc1ccnc(Nc2cccc(-c3cnc(CCCCCN)s3)n2)c1 | < 6.00

For CON(C)C(=O)[C@H]1CC[C@H](c2ncc(-c3cccc(Nc4cc(C)ccn4)n3)s2)CC1 , what is its reported pIC50?
6.00 to 7.00

For Cc1ccnc(Nc2cccc(-c3cnc(Cc4cccnc4)s3)n2)c1 , what is its reported pIC50?
6.00 to 7.00

For Cc1ccnc(Nc2cccc(-c3cnc(CN(C)C(=O)C4CC4)s3)n2)c1 , what is its reported pIC50?
6.00 to 7.00
